Target: 5-hydroxytryptamine receptor 2C (Homo sapiens)
Sequence (P28335 whole entry): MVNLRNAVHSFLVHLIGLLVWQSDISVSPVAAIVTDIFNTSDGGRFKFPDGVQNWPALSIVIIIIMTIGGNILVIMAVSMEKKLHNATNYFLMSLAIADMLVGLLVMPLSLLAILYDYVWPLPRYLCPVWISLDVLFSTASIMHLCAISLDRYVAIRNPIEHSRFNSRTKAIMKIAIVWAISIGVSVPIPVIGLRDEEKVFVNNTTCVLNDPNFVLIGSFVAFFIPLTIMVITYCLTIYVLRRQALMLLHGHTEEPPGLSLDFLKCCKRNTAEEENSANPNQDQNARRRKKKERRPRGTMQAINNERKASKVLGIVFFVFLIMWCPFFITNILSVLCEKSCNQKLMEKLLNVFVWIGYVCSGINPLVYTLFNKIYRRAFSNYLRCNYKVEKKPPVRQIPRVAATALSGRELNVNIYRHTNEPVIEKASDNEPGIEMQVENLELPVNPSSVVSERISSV
For each entry below, report its pKi value.
Please express pKi as -log10 of the molar concentration.

Recorded pKi of CC(C)c1cc2c(cc1C(F)(F)F)N(C(=O)Nc1cccnc1)CC2 , please. 7.60

Recorded pKi of CC(C)(C)c1ccc2c(c1Cl)CCN2C(=O)Nc1cccnc1 , please. 7.40

Recorded pKi of CCOc1cc2c(cc1C(F)(F)F)N(C(=O)Nc1cccnc1)CC2 , please. 8.20

Recorded pKi of O=C(Nc1cccnc1)N1CCc2cc(-c3ccccc3)c(Cl)cc21 , please. 6.90

Recorded pKi of CSc1cc2c(cc1Br)CCN2C(=O)Nc1cccnc1 , please. 7.30

Recorded pKi of Cc1cc2c(cc1Cl)CCN2C(=O)Nc1cccnc1 , please. 8.00

Recorded pKi of CN(C)c1ccc2c(c1)CCN2C(=O)Nc1cccnc1 , please. 6.50

Recorded pKi of Cc1ccc2c(c1I)CCN2C(=O)Nc1cccnc1 , please. 7.60

Recorded pKi of O=C(Nc1cccnc1)N1CCc2cc(Cl)ccc21 , please. 7.10

Recorded pKi of O=C(Nc1cccnc1)N1CCc2cc(-c3ccccc3)ccc21 , please. 6.90

Recorded pKi of COc1cc2c(cc1Br)N(C(=O)Nc1cccnc1)CC2 , please. 7.90

Recorded pKi of CC(C)c1cc2c(cc1Cl)N(C(=O)Nc1cccnc1)CC2 , please. 7.70

Recorded pKi of CC(C)c1ccc2c(c1)CCN2C(=O)Nc1cccnc1 , please. 7.10

Recorded pKi of Cc1ccc2c(c1)CCN2C(=O)Nc1cccnc1 , please. 6.80

Recorded pKi of O=C(Nc1cccnc1)N1CCc2ccc(Cl)c(Cl)c21 , please. 6.10

Recorded pKi of CSc1cc2c(cc1I)N(C(=O)Nc1cccnc1)CC2 , please. 8.70

Recorded pKi of CSc1cc2c(cc1C#N)N(C(=O)Nc1cccnc1)CC2 , please. 7.80

Recorded pKi of CCCc1cc2c(cc1Cl)N(C(=O)Nc1cccnc1)CC2 , please. 7.70
